Target: recombinant human PAI-1 (Homo sapiens)
Construct: purchased Molecular Innovations, Inc
Sequence (P05121 24-402): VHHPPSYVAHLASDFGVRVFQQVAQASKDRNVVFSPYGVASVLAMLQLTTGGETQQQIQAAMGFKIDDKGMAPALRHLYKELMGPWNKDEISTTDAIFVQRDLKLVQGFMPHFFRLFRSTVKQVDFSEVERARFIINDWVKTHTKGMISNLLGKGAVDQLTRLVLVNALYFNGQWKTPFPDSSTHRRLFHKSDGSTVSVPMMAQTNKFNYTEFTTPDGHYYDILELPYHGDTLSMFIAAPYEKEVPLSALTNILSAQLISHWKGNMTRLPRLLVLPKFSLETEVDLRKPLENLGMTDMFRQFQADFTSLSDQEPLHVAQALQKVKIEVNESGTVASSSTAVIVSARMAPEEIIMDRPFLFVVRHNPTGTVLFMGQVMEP
Test: Test Example 2: human PAI-1 inhibitory activity (tPA fluorogenic substrate, pH 7.4 HEPES buffer)
Assay type: biochemical
Details: human PAI-1; calculated from the inhibition rates
pIC50: −log10 of the molar value.
Measurement Kind: pIC50

As a guide, the following entries are already answered.
Req: Specify reported pIC50 for the compound shown: CCCCCCC(Oc1cc(-c2ccc(OC(F)(F)F)cc2)ccc1Oc1ccc(C(C)(C)C)cc1)C(=O)O (stereo not shown) [Compound 323]
Resp: 6.31

Req: Identify measured pIC50 associated with CCCCCCC(Oc1cc(-c2ccc(OC(F)(F)F)cc2)ccc1Oc1ccc(C(F)(F)F)cc1)C(=O)O (stereo not shown) [Compound 327]
Resp: 6.38

Req: # return recorded pIC50 for entry CC(C)(C)c1ccc(COc2c(CCC(=O)O)cccc2-c2ccc(OC(F)(F)F)cc2)cc1 [Compound 88]
Resp: 5.88

Req: State its pIC50 for this compound: CC(C)(Oc1cc(-c2ccc(OC(F)(F)F)cc2)ccc1OCc1ccc(C(C)(C)C)cc1)C(=O)O [Compound 106]
Resp: 5.94

Req: // Input: CCCCC(Oc1cc(-c2ccc(OC(F)(F)F)cc2)ccc1OCCCCc1ccccc1)C(=O)O (stereo not shown) [Compound 306] . Output its pIC50 only.
Resp: 6.06

I = CC(C)(Oc1cc(-c2ccc(OC(F)(F)F)cc2)ccc1OCCCCc1ccccc1)C(=O)O [Compound 116]
II = CC(C)(C)c1ccc(Oc2cc(-c3ccc(OC(F)(F)F)cc3)ccc2OCC(=O)O)cc1 [Compound 112]
Req: Name the one with the greater pIC50 value, either I or II as given. Please indicate the selected item by its label.
Resp: II

a = CC(C)(C)c1ccc(COc2cccc(Oc3ccc(OC(F)(F)F)cc3)c2CCC(=O)O)cc1 [Compound 86]
b = CCCCCCCOc1ccc(-c2ccc(OC(F)(F)F)cc2)cc1N(CCCCc1ccccc1)C(=O)C(=O)O [Compound 352]
Req: Param metric = pIC50; output whichever of a , b has the minimum value. Your choice should be expressed through its label.
Resp: a

====

Biological target: recombinant human PAI-1 (Homo sapiens)
Construct: purchased Molecular Innovations, Inc
Assay: Test Example 1: human PAI-1 inhibitory activity (tPA fluorogenic substrate, pH 7.5 Tris buffer)
Type: biochemical
Conditions: Compound Concentration 5 μM; Tris buffer
Measurement Kind: Inhibition Rate of PAI-1 Activity (%)

Req: Provide measured Inhibition Rate of PAI-1 Activity (%) value, entry: `O=C(O)Cc1cc(-c2ccc(OC(F)(F)F)cc2)ccc1OCc1ccccc1`
Resp: 18

I = CN(C)c1ccc(N(Cc2ccc(C(C)(C)C)cc2)C(=O)C(=O)O)cc1-c1ccc(OC(F)(F)F)cc1
II = CC(C)(C)c1ccc(N(C(=O)C(=O)O)c2ccccc2-c2ccc(OC(F)(F)F)cc2)cc1
Req: Compare the recorded Inhibition Rate of PAI-1 Activity (%) of I and II ; state which is larger. Record your answer as the label of the chosen record.
Resp: I

A = CC(C)(C)c1ccc(COc2cc(Oc3ccc(OC(F)(F)F)cc3)ccc2/C=C/C(=O)O)cc1
B = CC(C)(C)c1ccc(CN(C(=O)C(=O)O)c2ccc(-c3ccccc3OC(F)(F)F)cc2)cc1
Req: // task: argmin of Inhibition Rate of PAI-1 Activity (%) over [ A , B ] State your choice using its label.
Resp: A

====

Target: recombinant human PAI-1 (Homo sapiens)
Construct: purchased Molecular Innovations, Inc
Assay: Test Example 1: human PAI-1 inhibitory activity (tPA fluorogenic substrate, pH 7.5 Tris buffer)
Assay type: biochemical
Details: Compound Concentration 25 μM; Tris buffer
Description: 50 mM Tris, 150 mM NaCl, 10 μg/ml BSA, 0.01% Tween80 (SIGMA-ALDRICH Corporation)
Measurement Kind: Inhibition Rate of PAI-1 Activity (%)

Examples with their reported Inhibition Rate of PAI-1 Activity (%) follow.
Req: Indicate its recorded Inhibition Rate of PAI-1 Activity (%); the compound in question is CC(C)(C)c1ccc(-c2ccc(N(Cc3ccc(C(F)(F)F)cc3)C(=O)C(=O)O)cc2)cc1 [Compound 205]
Resp: 98

Req: Quote Inhibition Rate of PAI-1 Activity (%) reported for COc1ccccc1-c1ccc(OCc2ccc(C(C)(C)C)cc2)c(/C=C/C(=O)O)c1 [Compound 55] please.
Resp: 95

Req: Answer with reported Inhibition Rate of PAI-1 Activity (%) of CC(C)Oc1ccc(N(CCCc2ccccc2)C(=O)C(=O)O)c(-c2ccc(OC(F)(F)F)cc2)c1 [Compound 239]
Resp: 98

Req: Give Inhibition Rate of PAI-1 Activity (%) for Cc1cc(-c2ccc(OC(F)(F)F)cc2)cc(CCC(=O)O)c1OCc1ccc(C(C)(C)C)cc1 [Compound 84]
Resp: 95

A = COc1ccccc1-c1ccc(OCc2ccc(C(C)(C)C)cc2)c(CCC(=O)O)c1 [Compound 56]
B = Cc1ccc(-c2ccc(N(Cc3ccc(C(C)(C)C)cc3)C(=O)C(=O)O)cc2)cc1 [Compound 141]
C = COc1ccc(COc2ccc(-c3ccc(OC(F)(F)F)cc3)cc2CCC(=O)O)cc1 [Compound 60]
Req: Hey, quick one: sort these by Inhibition Rate of PAI-1 Activity (%), largest value first please. Please respond by ranking the labels in the order requested.
Resp: A, B, C
(A: 91%, B: 52%, C: 25%)

====

Target: recombinant human PAI-1 (Homo sapiens)
Construct: purchased Molecular Innovations, Inc
Assay: Test Example 2: human PAI-1 inhibitory activity (tPA fluorogenic substrate, pH 7.4 HEPES buffer)
Type: biochemical
Conditions: Compound Concentration 0.1 μM; HEPES buffer
Measurement Kind: Inhibition Rate of PAI-1 Activity (%)

Req: For the molecule `Cc1cc(N(C)C)c(-c2ccc(OC(F)(F)F)cc2)cc1N(Cc1ccc(C(C)(C)C)cc1)C(=O)C(=O)O` , give its reported Inhibition Rate of PAI-1 Activity (%).
Resp: 7

Req: Consider the molecule `CCN(CC)c1ccc(N(Cc2ccc(C(C)(C)C)cc2)C(=O)C(=O)O)cc1-c1ccc(OC(F)(F)F)cc1` and give its recorded Inhibition Rate of PAI-1 Activity (%).
Resp: 0

Req: Please give measured Inhibition Rate of PAI-1 Activity (%) of the following entry: `CN(C)c1ccc(N(Cc2ccc(C(C)(C)C)cc2)C(=O)C(=O)O)cc1-c1ccc(OC(F)(F)F)cc1`
Resp: 4

1 = CCCCc1ccc(COc2ccc(-c3ccc(OC(F)(F)F)cc3)cc2CCC(=O)O)cc1
2 = CC(C)(C)c1ccc(CN(C(=O)C(=O)O)c2ccc(OCc3ccccc3)c(-c3ccc(OC(F)(F)F)cc3)c2)cc1
3 = CC(C)Oc1ccc(N(Cc2ccc(C(C)(C)C)cc2)C(=O)C(=O)O)cc1-c1ccc(OC(F)(F)F)cc1
Req: Form: Sort by [Inhibition Rate of PAI-1 Activity (%)] Order [ ascending ] Form entry: labels listed in requested order.
Resp: 1, 2, 3
(1: 0%, 2: 5%, 3: 9%)

====

Target: recombinant human PAI-1 (Homo sapiens)
Construct: purchased Molecular Innovations, Inc
Experiment: Test Example 1: human PAI-1 inhibitory activity (tPA fluorogenic substrate, pH 7.5 Tris buffer)
Format: biochemical
Conditions: Compound Concentration 10 μM; Tris buffer
Description: 50 mM Tris, 150 mM NaCl, 10 μg/ml BSA, 0.01% Tween80 (SIGMA-ALDRICH Corporation)
Measurement Kind: Inhibition Rate of PAI-1 Activity (%)

Some molecules with recorded Inhibition Rate of PAI-1 Activity (%):
Req: Look up and report measured Inhibition Rate of PAI-1 Activity (%) for this entry: CC(C)(C)c1ccc(CN(C(=O)C(=O)O)c2ccc(OCc3ccc(OC(F)(F)F)cc3)c(OCc3ccc(OC(F)(F)F)cc3)c2)cc1 [Compound 622]
Resp: 72

Req: Read the entry CCCCCOc1ccc(-c2ccc(OC(F)(F)F)cc2)cc1N(CCCCCc1ccccc1)C(=O)C(=O)O [Compound 242] and write its reported Inhibition Rate of PAI-1 Activity (%).
Resp: 94

Req: Given the molecule CC(C)(C)c1ccc(CN(C(=O)C(=O)O)c2ccc(Cl)c(OCc3ccc(OC(F)(F)F)cc3)c2)cc1 [Compound 629] , write its reported Inhibition Rate of PAI-1 Activity (%).
Resp: 92

Req: Consider the molecule Cc1cc(-c2ccc(OC(F)(F)F)cc2)cc(N(Cc2ccc(C(C)(C)C)cc2)C(=O)C(=O)O)c1 [Compound 178] . State its measured Inhibition Rate of PAI-1 Activity (%).
Resp: 88

Req: Please indicate Inhibition Rate of PAI-1 Activity (%) recorded for CC(C)Oc1ccc(N(CCCCc2ccccc2)C(=O)C(=O)O)cc1-c1ccc(OC(F)(F)F)cc1 [Compound 248]
Resp: 89

a = O=C(O)C(=O)N(Cc1ccccc1)c1c(Cl)cc(-c2ccc(OC(F)(F)F)cc2)cc1Cl [Compound 180]
b = Cc1ccc(-c2cccc([N+](=O)[O-])c2)cc1N(Cc1ccc(C(C)(C)C)cc1)C(=O)C(=O)O [Compound 138]
Req: Given the listed items, does a or b have the lesser reported Inhibition Rate of PAI-1 Activity (%)? Pick one and reply with its label.
Resp: b
(b: 4%, a: 36%)
